Target: SARS-CoV-2 spike protein on pseudotyped lentivirus (Wuhan Reference Pseudovirus) (SARS-CoV-2, UniProt P0DTC2 14-1273)
Assay: cell-based or functional assay
Kindly state Pseudovirus inhibition IC50 [Cont. 4] for each of the entries shown.
Field format: number, assumed nM, no unit text.

What does the data say about its Pseudovirus inhibition IC50 [Cont. 4]? Entry: MBP-5HVZ-R5D-B6-H6 (VHH, dimer) VHH: QVQLVESGGGLVQPGGSLRLSCAASGRILAANIVHWYRQAPGKEREGVAGITSGGGSYYADSVKGRFTISRDNAKNTVYLQMNSLKPEDTAVYYCNALGLGQSSLYRSADPYDSWGQGTQVTVSS 3.26

# Pseudovirus inhibition IC50 [Cont. 4] lookup, item PP1151 MBP-5HVZ-PAPA-R5d-B5-H6 (VHH, Form: Dimer) VHH: QVQLVESGGGLVQPGGSLRLSCAASGSRDSIVAMHWYRQAPGKGREGVAGITSRWVTYYADSVKGRFTISRDNAKNTVYLQMNSLKPEDTAVYYCNAPVYYDTEWYDIWGQGTQVTVSS 43.7

What value of Pseudovirus inhibition IC50 [Cont. 4] has been reported for the following binder? MBP-5HVZ-R5D-B5-H6 (VHH, dimer) VHH: QVQLVESGGGLVQPGGSLRLSCAASGSRDSIVAMHWYRQAPGKGREGVAGITSRWVTYYADSVKGRFTISRDNAKNTVYLQMNSLKPEDTAVYYCNAPVYYDTEWYDIWGQGTQVTVSS 3.25

Returns the measured Pseudovirus inhibition IC50 [Cont. 4] for the input binder. Input: PP1152 MBP-5HVZ-PAPA-R5d-B6-H6 (VHH, Form: Dimer) VHH: QVQLVESGGGLVQPGGSLRLSCAASGRILAANIVHWYRQAPGKEREGVAGITSGGGSYYADSVKGRFTISRDNAKNTVYLQMNSLKPEDTAVYYCNALGLGQSSLYRSADPYDSWGQGTQVTVSS 0.85
